Source listed as the supplement of paper PMC6470124.

- protocol_description: absolute recovery over mixed-bed multilayer solid-phase extraction; higher = better recovery
- assay_context: surface water; enrichment method: SPE
Parameter absolute recovery: see the listing below.
Respond with the bare value in %.

compound: Cc1nc2n(c(=O)c1CC[NH+]1CCC(c3noc4cc(F)ccc34)CC1)CCCC2
reported_value: 98.4
//
compound: CCCCOc1ccc(OCCC[NH+]2CCOCC2)cc1
reported_value: 95.3

Fill blank: measured absolute recovery of the compound O=C([O-])C[N-]S(=O)(=O)C(F)(F)C(F)(F)C(F)(F)C(F)(F)C(F)(F)C(F)(F)C(F)(F)C(F)(F)F is ____.
85.9

Fill blank: measured absolute recovery of the compound NC(=O)c1ncn(C2OC(CO)C(O)C2O)n1 (stereo not given) is ____.
30.5

Fill blank: measured absolute recovery of the compound C1=Cc2ccccc2Nc2ccccc21 is ____.
82.6

----------
- protocol_description: absolute recovery over mixed-bed multilayer solid-phase extraction; higher = better recovery
- assay_context: wastewater influent; enrichment method: SPE
// criterion not met strictly below 90% in absolute recovery; criterion met otherwise

Example entries and their recorded answers appear below.
molecule: CCC(C)OC(=O)N1CCCCC1CCO (centres undefined) [Picaridin (=Icaridin)]
class_name: criterion met
//
molecule: C#CCN1C(=O)COc2cc(F)c(N3C(=O)C4=C(CCCC4)C3=O)cc21 [Flumioxazin]
class_name: criterion not met
//
molecule: C[NH+](C)CCC(c1ccccc1)c1ccccn1 (centres undefined) [Pheniramine]
class_name: criterion not met
//
molecule: CCC[NH2+]C(C)C(=O)Nc1ccccc1C (centres undefined) [Prilocain]
class_name: criterion not met

Test whether the molecule CCCCCCCCCCCCCC[N+](C)(C)CCCCCCCCCCCCCC [Dimethylditetradecylammonium (=ATMAC-18)] records absolute recovery of 90% or higher.
criterion not met

Test whether the molecule O=C(Nc1ccccc1-c1ccc(Cl)cc1)c1cccnc1Cl [Boscalid] records absolute recovery of 90% or higher.
criterion met

----------
- protocol_description: LC retention time (Atlantis T3, 5-95% MeOH gradient, 0.1% formic acid); higher = more retained / less polar
quantity: LC retention time
Number plus unit, in that order.

molecule: C[N+]1([O-])CCN2c3ccccc3Cc3ccccc3C2C1 (stereo not given) [Mianserin-N-Oxide]
LC retention time: 15.1 min

molecule: O=C([O-])C(F)(F)C(F)(F)C(F)(F)C(F)(F)F
LC retention time: 12.4 min

molecule: NC(=O)Cc1ccc(OCC(O)C[NH3+])cc1 (stereo not given)
LC retention time: 6.53 min

molecule: COCC(C)N(C(=O)C(=O)[O-])c1c(C)csc1C (stereo not given)
LC retention time: 19.8 min

molecule: CC([NH3+])Cc1ccccc1 (stereo not given)
LC retention time: 10.4 min

molecule: O=P1(N(CCCl)CCCl)NCCCO1 (stereo not given)
LC retention time: 16.1 min

Fill blank: measured LC retention time of the molecule C[NH2+]C(C)C(O)c1ccccc1 (stereo not given) is ____.
9.53 min

----------
- protocol_description: absolute recovery over mixed-bed multilayer solid-phase extraction; higher = better recovery
- assay_context: surface water; enrichment method: SPE
// no strictly below 90% in absolute recovery; yes otherwise

Example entries and their recorded answers appear below.
compound: C=C1CC2C(CCC3(C)C(=O)CCC23)C2(C)C=CC(=O)C=C12 (stereo not given)
class_name: yes

compound: CC(C)N1C(=O)c2ccccc2[N-]S1(=O)=O
class_name: yes

compound: NC(=O)N1c2ccccc2C=Cc2ccccc21 [Carbamazepin]
class_name: yes

compound: [O-]n1nnc2ccccc21 [1-Hydroxybenzotriazole H]
class_name: no

compound: N#CCNC(=O)c1cnccc1C(F)(F)F
class_name: yes

Test whether the compound [NH3+]C12CC3CC(CC(C3)C1)C2 records absolute recovery of 90% or higher.
no

Test whether the compound O=c1[nH+]c[n-]c2c1ncn2C1CCC(CO)O1 (stereo not given) records absolute recovery of 90% or higher.
no

Test whether the compound C#CC[NH+](C)Cc1ccccc1 records absolute recovery of 90% or higher.
no

Test whether the compound Cc1cccc(C)c1N(Cn1cccn1)C(=O)C(=O)[O-] records absolute recovery of 90% or higher.
yes

Test whether the compound Cc1ccc(C(C)NC(=O)C(NC(=O)OC(C)C)C(C)C)cc1 (stereo not given) records absolute recovery of 90% or higher.
no
